- target-desc: Calmodulin-1 (Homo sapiens)
- procedure-details: calcium-bound CALM1 binders on microarrays, profiling panel, artefact control for SMM control-protein annotation, biochemical, small-molecule microarray, Cy5-labelled CALM1, plus calcium (AID 1112);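 also: score merges spot fluorescence with signal to noise from triplicate slides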
- condition: Cy5-CALM1 binding fluorescence, higher = more signal
composite z-score for assorted compounds
measured-quantity: composite z-score

>  <compound>
COCCOC(=O)N1C(=O)[C@@]2(c3cc(C#Cc4ccc(OC)cc4)ccc31)[C@H](C(=O)N1CCCCCCC1)[C@H]1C(=O)O[C@H](c3ccccc3)[C@H](c3ccccc3)N1[C@@H]2c1ccccc1OCCO

>  <measurement>
1.49

$$$$
>  <compound>
CN(C)CCCCNC(=O)[C@H]1C[C@H]2C(=O)N[C@@H](Cc3ccccc3)C(=O)N2[C@H]1c1cccc(OCCO)c1

>  <measurement>
0.0005

$$$$
>  <compound>
O=C1C2C=CC(C(O)c3cccs3)N(Nc3ccccc3)C2C(=O)N1c1ccccc1 (centres undefined)

>  <measurement>
-0.971

$$$$
>  <compound>
CCOC(=O)C1=CCC(c2cc3ccccc3[nH]2)N(S(=O)(=O)c2ccccc2[N+](=O)[O-])C1 (centres undefined)

>  <measurement>
-0.472

$$$$
